Measured Ki by item
- Study target: T1, Beta Transducin repeat-containing protein (βTrCP), tag cleaved and complexed with Skp1 (UniProt Q9Y297 175-605; P63208 1-163)
- T1 construct: the FP protocol says that Ki is determined from FP dose-response curves; also called βTrCP/Skp1
- T1 sequence (Q9Y297 175-605, chain 1 of 2): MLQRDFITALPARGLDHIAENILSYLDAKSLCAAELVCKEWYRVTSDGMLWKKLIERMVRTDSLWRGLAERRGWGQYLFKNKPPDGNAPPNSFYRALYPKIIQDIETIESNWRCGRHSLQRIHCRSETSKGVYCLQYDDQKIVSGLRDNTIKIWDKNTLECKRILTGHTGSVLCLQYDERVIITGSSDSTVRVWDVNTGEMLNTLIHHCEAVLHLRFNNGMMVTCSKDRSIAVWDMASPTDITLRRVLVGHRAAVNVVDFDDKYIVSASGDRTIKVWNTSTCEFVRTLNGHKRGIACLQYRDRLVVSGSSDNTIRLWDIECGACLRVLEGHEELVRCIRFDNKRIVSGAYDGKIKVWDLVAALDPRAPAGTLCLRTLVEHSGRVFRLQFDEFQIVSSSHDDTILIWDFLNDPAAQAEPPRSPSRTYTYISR
- T1 sequence (P63208 whole entry, chain 2 of 2): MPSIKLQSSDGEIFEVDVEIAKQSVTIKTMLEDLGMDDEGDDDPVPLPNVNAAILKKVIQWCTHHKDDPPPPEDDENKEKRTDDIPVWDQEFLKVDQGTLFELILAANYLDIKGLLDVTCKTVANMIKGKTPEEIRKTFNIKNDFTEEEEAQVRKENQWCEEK
- Run description: FP competition dose-response, fluorescein-IkB peptide tracer on βTrCP/Skp1 (average Ki; assay not given)
Non-standard residues stand in square brackets, D forms with d. *: point of attachment. Benzenesulfonyl(4-OMe) = COc1ccc(S(=O)(=O)*)cc1; Phe(3-F) = N[C@@H](Cc1cccc(F)c1)C(=O)O; Benzoyl(4-Br) = O=C(c1ccc(Br)cc1)*; Ahx = NCCCCCC(=O)O
State just the number; it will be interpreted in nM.

Field: example entries. Status: answers known.
>  <Binder>
{Benzenesulfonyl(4-OMe)}-[dD]EG[Phe(3-F)]WE[Ahx]K(Benzoyl(4-Br))-NH2 (also called UBP058) [4-(MeO)PhSO2-dEGF(3F)WE-Ahx-K(NHCO-(4-(Br)-Ph))-NH2]

>  <Ki [nM]>
3.35

$$$$
>  <Binder>
{Benzenesulfonyl(4-OMe)}-[dD]EG[Phe(3-F)]WE[Ahx]K(4‑(trifluoromethyl)benzoyl)-NH2 (also called UBP064) [4-(MeO)PhSO2-dEGF(3F)WE-Ahx-K(NHCO-(4-(CF3)-Ph))-NH2]

>  <Ki [nM]>
6.39

$$$$

// next item, Ki requested
Req: Reported Ki for {4‑Cl‑PhSO2}-[dD]EG[Phe(3-F)]WE-NH2 (also called UBP053) [4-Cl-PhSO2-dEGF(3F)WE-NH2] : what is it?
Resp: 330

The reported measurements were obtained from patent US20190106460A1.
